Test system: VERO-E6 cells enriched for angiotensin converting enzyme 2 receptor (ACE-2)
Assay: In vitro toxicity, cell viability assay in VERO-E6 cells in the absence of virus
Details: Table I, positive controls; absence of SARS-CoV-2 virus
Peptide text beside a SMILES is read from it. * marks the point of attachment. Cbz = O=C(OCc1ccccc1)*; CH2F = FC*
Answer each item with its documented CC50.

[ask] Dear colleague, I am looking for the recorded CC50 of the following compound: CCN(CCO)CCCC(C)Nc1ccnc2cc(Cl)ccc12 (centres unmarked) [Hydroxychloroquine, hydroxychloroquine, reference compound]
[reply] > 30 µM

[ask] Same lookup for CCOC(=O)[C@H]1O[C@@H]1C(=O)N[C@@H](CC(C)C)C(=O)NCCC(C)C [E64d (aloxistatin), aloxistatin, reference compound] , please.
[reply] > 30 µM

[ask] Same lookup for CCN(CC)CCCC(C)Nc1ccnc2cc(Cl)ccc12 (centres unmarked) [Chloroquine, chloroquine, reference compound] , please.
[reply] > 30 µM

[ask] Same lookup for CCC(CC)COC(=O)[C@H](C)N[P@](=O)(OC[C@H]1O[C@@](C#N)(c2ccc3c(N)ncnn23)[C@H](O)[C@@H]1O)Oc1ccccc1 [Remdesivir, remdesivir, reference compound] , please.
[reply] > 30 µM

[ask] Same lookup for CC(C)C[C@H](NC(=O)OCc1ccccc1)C(=O)N[C@@H](CC(C)C)C(=O)N[C@@H](Cc1ccc(O)cc1)C(=O)CF [Calpain Inhibitor IV, reference compound] (Cbz-Leu-Leu-Tyr-CH2F) , please.
[reply] > 7.17 µM
